# experimental_target: cynomolgus IgE (recombinant chimaeric D12 variable region / cynomolgus IgE constant region) (cynomolgus monkey (constant region))
# Sequence (heavy, as listed by the source limits assumed, chain 1 of 2): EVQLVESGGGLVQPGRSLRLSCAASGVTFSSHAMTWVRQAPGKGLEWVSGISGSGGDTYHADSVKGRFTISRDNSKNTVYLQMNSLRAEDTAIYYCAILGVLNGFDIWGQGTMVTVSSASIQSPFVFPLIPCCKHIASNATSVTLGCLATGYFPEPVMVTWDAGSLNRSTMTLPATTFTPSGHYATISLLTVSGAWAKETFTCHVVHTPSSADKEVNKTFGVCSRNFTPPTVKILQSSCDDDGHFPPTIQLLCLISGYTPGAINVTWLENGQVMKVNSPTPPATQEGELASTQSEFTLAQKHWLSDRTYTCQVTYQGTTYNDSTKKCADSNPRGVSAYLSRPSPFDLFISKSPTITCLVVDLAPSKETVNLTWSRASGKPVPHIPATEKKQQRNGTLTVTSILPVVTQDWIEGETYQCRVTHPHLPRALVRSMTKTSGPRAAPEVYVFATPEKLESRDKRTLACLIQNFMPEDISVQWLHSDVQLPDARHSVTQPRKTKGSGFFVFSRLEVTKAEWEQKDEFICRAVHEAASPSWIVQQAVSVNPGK
# Sequence (light, as listed by the source limits assumed, chain 2 of 2): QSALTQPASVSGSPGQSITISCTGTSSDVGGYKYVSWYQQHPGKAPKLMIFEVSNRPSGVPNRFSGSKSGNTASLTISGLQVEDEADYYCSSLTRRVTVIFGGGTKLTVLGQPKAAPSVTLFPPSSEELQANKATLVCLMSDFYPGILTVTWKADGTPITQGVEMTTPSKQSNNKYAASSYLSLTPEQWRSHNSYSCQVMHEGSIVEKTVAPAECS
# test: cell-based or functional assay
reported_endpoint: RBL-ER51 calcium signalling IC50 (nM) Geomean, cynomolgus IgE 100 ng/ml
# number only, unit nM dropped from output

[Q] Entry under review: Antibody 26 (IgG) (antibody, V domains shown) VH: EVQLLESGGGLVQPGGSLRLSCAASGLTFSGYAMSWVRQAPGKGLEWVSAISGSGGRTYYADSVKGRFTISRDNSKNMLYLQMNSLRAEDTAVYYCARHIAVAGTRGFDYWGRGTLVTVSS VL: SFVLTQPPSVSVSPGQTASITCSGDKLGDTYASWYRQRSGQSPVLVIYQDDKRPSGIPERFSGSNSGNTATLTIGGTHTMDEADYYCLAWDTRTSGAVFGGGTKLTVL . Reported RBL-ER51 calcium signalling IC50 (nM) Geomean, cynomolgus IgE 100 ng/ml?
[A] 17

These entries and their values trace back to patent US20110212084A1.
